# credit: ChEMBL document CHEMBL1125576

Biological target: UniProtKB P15144
Sequence (P15144 whole entry): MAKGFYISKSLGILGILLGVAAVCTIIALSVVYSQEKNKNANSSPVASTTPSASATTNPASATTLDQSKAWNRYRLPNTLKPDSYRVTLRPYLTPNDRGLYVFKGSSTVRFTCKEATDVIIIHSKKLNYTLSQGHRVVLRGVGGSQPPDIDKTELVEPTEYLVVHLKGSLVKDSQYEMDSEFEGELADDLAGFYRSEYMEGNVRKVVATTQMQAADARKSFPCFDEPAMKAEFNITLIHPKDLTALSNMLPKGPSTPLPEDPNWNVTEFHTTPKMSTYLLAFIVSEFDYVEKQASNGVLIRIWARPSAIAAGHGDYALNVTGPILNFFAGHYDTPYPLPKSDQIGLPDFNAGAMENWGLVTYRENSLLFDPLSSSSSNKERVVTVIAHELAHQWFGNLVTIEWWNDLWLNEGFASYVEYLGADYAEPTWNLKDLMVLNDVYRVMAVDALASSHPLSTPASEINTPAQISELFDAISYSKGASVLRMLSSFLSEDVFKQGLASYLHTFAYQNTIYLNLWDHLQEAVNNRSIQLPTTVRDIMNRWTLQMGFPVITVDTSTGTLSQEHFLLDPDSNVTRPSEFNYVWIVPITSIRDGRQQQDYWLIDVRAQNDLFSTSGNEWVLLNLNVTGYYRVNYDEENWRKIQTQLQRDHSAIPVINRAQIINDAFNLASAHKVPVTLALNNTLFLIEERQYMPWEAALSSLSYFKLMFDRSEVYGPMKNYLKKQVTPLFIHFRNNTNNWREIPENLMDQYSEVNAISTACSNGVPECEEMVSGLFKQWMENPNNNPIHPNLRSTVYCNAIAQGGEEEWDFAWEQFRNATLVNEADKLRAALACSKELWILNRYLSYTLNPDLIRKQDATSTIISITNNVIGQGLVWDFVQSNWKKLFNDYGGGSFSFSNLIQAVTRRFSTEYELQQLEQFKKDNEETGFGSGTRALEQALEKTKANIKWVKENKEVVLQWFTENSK
Assay: Compound was tested for binding affinity towards microsomal aminopeptidase; Kii was reported
pKi: −log10 of the molar value.
pKi overview
measurementName: pKi

[[record]]
molecule = "CC(C)C[C@H](N)C(=O)CC(Cc1ccccc1)C(=O)O (some centres not stated)"
measurementname = "pKi"
numericresult = 3.59

[[record]]
molecule = "CC(C)C[C@H](N)C(=O)CC(C)C(=O)O (some centres not stated)"
measurementname = "pKi"
numericresult = 3.03


====

pKi: −log10 of the molar value.
The following compounds have recorded pKi on UniProt:Q9H4A4.
Sequence (Q9H4A4 whole entry): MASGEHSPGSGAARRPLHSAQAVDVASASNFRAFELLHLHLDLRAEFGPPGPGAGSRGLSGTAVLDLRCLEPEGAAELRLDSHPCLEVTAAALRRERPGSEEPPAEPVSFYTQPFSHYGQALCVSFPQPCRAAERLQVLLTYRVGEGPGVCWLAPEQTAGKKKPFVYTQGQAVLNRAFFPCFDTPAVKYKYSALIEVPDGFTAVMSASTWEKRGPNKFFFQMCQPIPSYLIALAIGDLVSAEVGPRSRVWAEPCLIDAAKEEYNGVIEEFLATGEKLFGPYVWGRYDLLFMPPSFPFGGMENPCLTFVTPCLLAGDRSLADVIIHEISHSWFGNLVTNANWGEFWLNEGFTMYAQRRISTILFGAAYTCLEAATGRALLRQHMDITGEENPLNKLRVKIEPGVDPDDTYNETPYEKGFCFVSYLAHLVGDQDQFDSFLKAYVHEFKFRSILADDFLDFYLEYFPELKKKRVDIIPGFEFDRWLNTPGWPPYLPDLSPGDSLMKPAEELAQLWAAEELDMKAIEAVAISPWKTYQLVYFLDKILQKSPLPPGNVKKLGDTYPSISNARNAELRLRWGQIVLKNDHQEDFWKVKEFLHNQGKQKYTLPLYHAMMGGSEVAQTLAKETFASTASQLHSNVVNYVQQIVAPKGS
measurementName: pKi

[[record]]
compound = "CC(=O)[C@@H](N)CC(C)C"
assayedtarget = "UniProt:Q9H4A4"
measurementname = "pKi"
resultcomparator = "<"
numericresult = 3.00

[[record]]
compound = "CC(C)CCNC(=O)C(=O)[C@H](N)CC(C)C"
assayedtarget = "UniProt:Q9H4A4"
measurementname = "pKi"
resultcomparator = "="
numericresult = 5.19

[[record]]
compound = "CC(C)CCNC(=O)C(=O)C(N)Cc1ccccc1 (stereo unspecified)"
assayedtarget = "UniProt:Q9H4A4"
measurementname = "pKi"
resultcomparator = "="
numericresult = 5.82

[[record]]
compound = "CC(C)C[C@H](N)C(=O)CC(Cc1ccccc1)C(=O)O (stereo partly specified)"
assayedtarget = "UniProt:Q9H4A4"
measurementname = "pKi"
resultcomparator = "="
numericresult = 6.77

[[record]]
compound = "CC(C)CCNC(=O)C(=O)[C@@H](N)CC(C)C"
assayedtarget = "UniProt:Q9H4A4"
measurementname = "pKi"
resultcomparator = "="
numericresult = 5.49

[[record]]
compound = "CC(C)CCNC(=O)[C@@H](O)[C@H](N)CC(C)C"
assayedtarget = "UniProt:Q9H4A4"
measurementname = "pKi"
resultcomparator = "<"
numericresult = 3.52

